test: small-molecule microarray binders of probe aCHRDL2, primary screen, biochemical, biotinylated probe, 635/667 nm fluorescence (AID 1100); conditions: higher = more signal
Outcome Measure: composite z-score

- C[C@@H]1CC[C@H]2C(=O)O[C@@H](Cc3ccccc3)CN2[C@H]1c1ccc(Br)cc1: -0.246
- COc1cccc([C@H]2Oc3ccc(OC)cc3C(=NO[C@@H]3O[C@H](COC(C)=O)[C@@H](OC(C)=O)[C@H](OC(C)=O)[C@H]3OC(C)=O)[C@@H]2O)c1: -0.0882
- C[C@H](ON=C1[C@H]2CCn3c(=O)n(-c4ccccc4)c(=O)n3[C@H]2[C@H](O)[C@@H]2O[C@H]12)c1cn([C@H](CO)Cc2ccccc2)nn1: -0.519
- CC=CC1=C(CO)C(=O)[C@@H]2O[C@@H]2C1=O: -1.79
- CCOC(=O)[C@H](Cc1ccccc1)NC(=O)CCC1CC(OC(=O)NCCc2ccc(F)cc2)CC2(CCCC(COC(=O)NCCCN3CCCC3=O)O2)O1 (stereo partly specified): -0.802
- CC(=O)Nc1ccc([C@@H]2N[C@H](C(=O)O)CC[C@H]2C)cc1: -0.401
- CCCNC(=O)OC[C@H]1O[C@H](CCON=C(C)CCN2CCCc3nc(C)c(C)cc32)C=C[C@@H]1Oc1ccc(OC)cc1: -0.237
- CCOC(=O)CCN1C(=O)[C@H]2[C@H]3[C@H](O)[C@H](O)CC(=NNC(=O)OCc4ccccc4)[C@@H]3CC[C@H]2C1=O: -0.201
- CCCCC#C[C@@H]1C=C[C@H](Oc2ccc(C(=O)OC)cc2)[C@@H](COC(=O)OCC)O1: -0.334
- CC(CCC(=O)OC[C@H]1O[C@H](C#Cc2ccccc2)C=C[C@@H]1Oc1ccc(C)cc1)=NO[C@H](C)c1cn([C@H](CO)Cc2ccccc2)nn1: -0.532
- CC(CCN1CCCCc2nc(C)c(C)cc21)=NOC[C@@H](O)COCc1ccco1: -1.58
- CC(C)CON=C1C[C@@H](O)[C@@H](O)[C@@H]2[C@@H]3C(=O)N(C[C@@H]4CCCO4)C(=O)[C@@H]3CC[C@@H]12: 0.0562
- COc1cccc([C@H]2Oc3ccc(OC)cc3C(=NO[C@H](C)c3cn([C@H](CO)Cc4ccccc4)nn3)[C@@H]2O)c1: -0.0229
- C=CC[C@@H]1C=C[C@H](ON=C2[C@H]3CCn4c(=O)n(-c5ccccc5)c(=O)n4[C@H]3[C@H](O)[C@@H]3O[C@H]23)[C@@H](CO)O1: -0.548
- CCOC(=O)[C@H](CC(C)C)NC(=O)CCC1CC(OC(=O)NCc2cccc3ccccc23)CC2(CCCC(COC(=O)NCc3cccc(C(F)(F)F)c3)O2)O1 (stereo partly specified): -0.346
- COc1ccc(O[C@H]2C=C[C@@H](c3ccccc3)O[C@@H]2COC(=O)CCC(C)=NOC(C)CN2CCCc3nc(C)c(C)cc32)cc1 (stereo partly specified): -0.433
- COC(=O)[C@@H]1CC[C@H](C)[C@@H](c2ccc(C)cc2)N1C(=O)c1ccc(C=NO[C@H](C)c2cn([C@@H]3COC[C@H]3O)nn2)cc1: -0.369
- CO[C@@H]1COC(=O)[C@@H](C)COC(=O)[C@@H](C)NC(=O)CC=C[C@@H]1C: -1.08
- COC(=O)CC=C[C@@H](C)[C@@H](C=NO[C@@H](C)c1cc(-c2c(C)cc(C)cc2C)no1)NS(=O)(=O)c1ccc(C)cc1: 0.969
- CCN1C(=O)[C@@H]2[C@H]3C(=CC[C@@H]2C1=O)C1(OCCCO1)[C@H]1O[C@H]1[C@H]3O: -0.0468
- CO[C@H]1COC(=O)CC=C[C@@H](C)[C@H](OC)COC(=O)CCC[C@@H]1C: -0.791
- CCN1C(=O)[C@H]2[C@H]3[C@H](O)[C@H](O)CC(=NNC(=O)OCc4ccc(OC)cc4)[C@@H]3CC[C@H]2C1=O: 0.765
- O=C1C=C[C@@H](O)[C@@H]2[C@@H]3C(=O)N(C[C@@H]4CCCO4)C(=O)[C@@H]3CC[C@@H]12: -0.454
- CCN1C(=O)[C@H]2[C@H]3[C@H](O)[C@H](O)CC(=O)[C@H]3CC[C@H]2C1=O: -0.721
- O=C(C=Cc1ccc2c(c1)OCO2)c1ccc(F)cc1: -0.459
- CO[C@H]1COC(=O)CC=C[C@@H](C)[C@H](OC)COC(=O)[C@@H]2CCCN2C(=O)CC=C[C@@H]1C: -1.14
- C[C@@H](c1ccccc1)N1C(=O)[C@H]2[C@H]3[C@H](O)[C@H](O)CC(=NOCc4ccccc4)[C@H]3CC[C@H]2C1=O: -0.442
- C=Cc1ccc([C@H]2N[C@H](C(=O)O)CC[C@@H]2C)cc1: 0.02
- CC(=O)OC[C@H]1O[C@H](C#Cc2ccccc2)C=C[C@@H]1OC(C)=O: -0.219
- COc1cccc([C@H]2Oc3ccc(OC)cc3C(=NOC[C@@H](O)COCc3ccco3)[C@@H]2O)c1: -0.798
- CCCCc1nc2c(c3c1C[C@H](C)OC3)CN(CCOc1ccccc1)CC2: -0.277

---

assay: E. coli DRC41 culture turbidity changes, primary screen, E. coli filamentation inducer project, strain DRC41, OD650, 48 h (AID 1152);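 further: E. coli MC1000 strain DRC41 lacking acrAB efflux pump and sulA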; settings: E. coli DRC41 (acrAB sulA), higher = more signal, called active from +8 up or from −8 down
Active and inactive are the calls of the source.
Outcome Measure: z-score

* CC(C)(C)N1C(=O)[C@H]2[C@H]3[C@H](O)[C@H](O)CC(=O)[C@@H]3CC[C@H]2C1=O | -0.767 (inactive)
* CCCNC(=O)OC[C@H]1O[C@H](CCON=C(C)CCN2CCCc3nc(C)c(C)cc32)C=C[C@@H]1Oc1ccc(OC)cc1 | 0.794 (inactive)
* COC(=O)[C@@H]1CC[C@@H](C)[C@H](c2ccc(Br)cc2)N1 | -0.394 (inactive)
* C#CCCCON=C1[C@H]2CCn3c(=O)n(-c4ccccc4)c(=O)n3[C@H]2[C@H](O)[C@@H]2O[C@H]12 | 0.555 (inactive)
* COC(=O)CC=C[C@@H](C)[C@@H](C=NOCC[C@@H]1C=C[C@H](OC(C)=O)[C@@H](COC(C)=O)O1)NS(=O)(=O)c1ccc(C)cc1 | 0.385 (inactive)
* O=C1[C@H]2[C@H]3[C@H](O)[C@H](O)CC(=NOCc4ccccc4)[C@@H]3CC[C@H]2C(=O)N1Cc1ccc2c(c1)OCO2 | 0.0628 (inactive)
* C[C@@H](ON=C1[C@H]2CCn3c(=O)n(-c4ccccc4)c(=O)n3[C@H]2[C@H](O)[C@@H]2O[C@H]12)c1cn([C@@H]2COC[C@H]2O)nn1 | -0.212 (inactive)

---

Entries and their z-score values follow.
assay: Plasmodium falciparum growth inhibition, primary screen, strain 3D7, DAPI fluorescence, 100 nL (AID 1184);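 further: parasites grown inside human red blood cells in medium with human serum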; settings: P. falciparum 3D7 growth, 3 d, higher = more signal
Outcome Measure: z-score

* CCOC(=O)NN=C1C[C@@H](O)[C@@H](O)[C@@H]2[C@@H]3C(=O)N(c4cccc(Oc5ccccc5)c4)C(=O)[C@@H]3CC[C@@H]12 | -0.512
* CC(CCN1CCCCc2nc(C)c(C)cc21)=NOC[C@@H](C)[C@H](OCc1ccccc1)C(C)C | 0.318
* O=C1OCCC=C1C(O)CCc1ccccc1 (stereo not drawn) | -0.542
* CON=CC[C@@H]1C=C[C@H](OC(C)=O)[C@@H](COC(C)=O)O1 | 1.2
* CCOC(=O)[C@H](CC(C)C)NC(=O)CCC1CC(OC(=O)NCCc2ccc(F)cc2)CC2(CCCC(COC(=O)NCC(c3ccccc3)c3ccccc3)O2)O1 (stereo partly drawn) | -1.02
* CCc1cc2c(nc1CC)CCN(CCC(C)=NO[C@@H](C)c1cn([C@H](CO)Cc3ccccc3)nn1)C2 | -1.72
* C#CCCCON=C1C[C@@H](O)[C@@H](O)[C@@H]2[C@@H]3C(=O)N(CCC(=O)OCC)C(=O)[C@@H]3CC[C@H]12 | -0.206
* COC(=O)CC=C[C@@H](C)[C@@H](C=NO[C@H](C)c1cn([C@@H]2COC[C@H]2O)nn1)NS(=O)(=O)c1ccc(C)cc1 | 0.781

---

molecular target: Follistatin (Homo sapiens) (UniProt P19883); test: follistatin binders on small-molecule microarrays, primary screen, biochemical, small-molecule microarray, 635/667 nm fluorescence (AID 1132); settings: FST binding, 635 nm fluorescence, higher = more signal
Sequence (P19883 whole entry, looked up): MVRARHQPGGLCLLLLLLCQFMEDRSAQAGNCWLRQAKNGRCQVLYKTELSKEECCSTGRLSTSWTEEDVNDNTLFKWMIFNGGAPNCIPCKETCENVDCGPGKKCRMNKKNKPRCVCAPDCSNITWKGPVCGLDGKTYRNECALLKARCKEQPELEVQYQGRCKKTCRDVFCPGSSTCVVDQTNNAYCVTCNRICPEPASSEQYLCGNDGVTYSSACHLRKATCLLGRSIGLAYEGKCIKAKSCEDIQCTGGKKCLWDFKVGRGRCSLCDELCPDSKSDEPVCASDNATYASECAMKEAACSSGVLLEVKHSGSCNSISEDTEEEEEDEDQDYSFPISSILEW
Outcome Measure: composite z-score

* CC(C)=CCCC(C)=CCON=C1C[C@@H](O)[C@@H](O)[C@@H]2[C@@H]3C(=O)N(C(C)(C)C)C(=O)[C@@H]3CC[C@@H]12 | 0.307
* CO[C@H]1COC(=O)CC=C[C@H](C)[C@@H](OC)COC(=O)[C@H](C)COC(=O)CC=C[C@@H]1C | 1.36
* C#CCCCON=C1C[C@@H](O)[C@@H](O)[C@@H]2[C@@H]3C(=O)N(c4cccc(Oc5ccccc5)c4)C(=O)[C@@H]3CC[C@H]12 | -0.446
* CCN1C(=O)[C@@H]2[C@H]3C(=CC[C@@H]2C1=O)C1(OCCCO1)[C@H]1O[C@H]1[C@H]3O | 1.12
* COC(=O)CC=C[C@@H](C)[C@@H](C=NOC[C@H]1O[C@H](c2ccccc2)C=C[C@@H]1Oc1ccc(OC)cc1)OC | 0.22
* CO[C@H]1COC(=O)[C@H](C)NC(=O)[C@@H](C)COC(=O)[C@H]2CCCN2C(=O)CC=C[C@H]1C | 0.593
* CCOC(=O)[C@H](Cc1ccccc1)NC(=O)CCC1CC(OC(=O)NCCc2ccc(F)cc2)CC2(CCCC(COC(=O)NCCc3ccc(Cl)cc3)O2)O1 (some centres not stated) | 0.326
